Numbers sourced from patent US11076595B2.

# Weed suppression rate (%) Lindemia pyxidaria listing for each entry below
- Tested on: Lindernia pyxidaria
- METHOD_DESCRIPTION: Test Example 12: herbicidal effect test by treatment during growing period in paddy field
- Format: in vivo
- CONDITION_CONTEXT: 120 g/10a; treatment seven days after sowing in flooded paddy pot; assessed 14 days after treatment
Phrase the answer as number then unit, nothing more needed.

A selection of reference data follows.
{"SMILES_NOTATION": "CC(C)N(C(=O)n1cnn(S(=O)(=O)c2ccccc2F)c1=O)c1ccc(C(F)(F)F)cc1F", "REPORTED_RESULT": "60%"}
{"SMILES_NOTATION": "CC(C)N(C(=O)n1cnn(S(=O)(=O)C2CC2)c1=O)c1ccc(F)c(F)c1F", "REPORTED_RESULT": "100%"}
{"SMILES_NOTATION": "CCc1ccc(S(=O)(=O)n2ncn(C(=O)N(CC)CC)c2=O)cc1", "REPORTED_RESULT": "60%"}

Proceed to the following item.
[Q] Lab note: need Weed suppression rate (%) Lindemia pyxidaria with Lindernia pyxidaria for entry CC(C)N(C(=O)n1cnn(S(=O)(=O)C2CC2)c1=O)c1c(F)cc(F)cc1F , please look it up.
[A] 70%

----------
- Test system: Echinochloa crus-galli
- METHOD_DESCRIPTION: Test Example 11: herbicidal effect test by soil treatment in paddy field
- Assay type: in vivo
- CONDITION_CONTEXT: 120 g/10a active ingredient, 14 days after treatment
OBSERVATION_TYPE: Weed suppression rate (%) Echinochloa crus-galli
Provide only the numeric value, understood in %.

{"SMILES_NOTATION": "CC(C)N(C(=O)n1cnn(S(=O)(=O)c2c(F)cccc2F)c1=O)c1c(F)cc(F)cc1F", "ENDPOINT_UNIT": "%", "REPORTED_RESULT": 100}
{"SMILES_NOTATION": "CC(C)N(C(=O)n1cnn(S(C)(=O)=O)c1=O)c1cccc(F)c1", "ENDPOINT_UNIT": "%", "REPORTED_RESULT": 90}
{"SMILES_NOTATION": "Cc1cc(C)c(S(=O)(=O)n2ncn(C(=O)N(c3ccc(F)cc3F)C(C)C)c2=O)c(C)c1", "ENDPOINT_UNIT": "%", "REPORTED_RESULT": 100}

[Q] GET /values?readout=Weed suppression rate (%) Echinochloa crus-galli&item= CC(C)N(C(=O)n1cnn(S(=O)(=O)c2ccc(C(C)(C)C)cc2)c1=O)c1cccc(F)c1F
[A] 100

[Q] GET /values?readout=Weed suppression rate (%) Echinochloa crus-galli&item= CC(C)N(C(=O)n1cnn(S(=O)(=O)c2ccccc2F)c1=O)c1ccccc1
[A] 90

[Q] GET /values?readout=Weed suppression rate (%) Echinochloa crus-galli&item= CC(C)N(C(=O)n1cnn(S(=O)(=O)N(C)C)c1=O)c1ccc(Cl)cn1
[A] 100

[Q] GET /values?readout=Weed suppression rate (%) Echinochloa crus-galli&item= Cc1cc(F)ccc1N(C(=O)n1cnn(S(=O)(=O)c2ccc(Cl)cc2)c1=O)C(C)C
[A] 70

[Q] GET /values?readout=Weed suppression rate (%) Echinochloa crus-galli&item= CC(C)N(C(=O)n1cnn(S(=O)(=O)c2ccc(F)cc2)c1=O)c1ccc(F)c(F)c1F
[A] 100

----------
- System: Amaranthus viridis
- METHOD_DESCRIPTION: Test Example 14: herbicidal effect test by foliage treatment in upland field
- Type: in vivo
- CONDITION_CONTEXT: 7 days after sowing, 120 g/10a, 14 days after treatment
OBSERVATION_TYPE: herbicidal effect, Amaranthus viridis (%)
Provide only the numeric value, understood in %.

A selection of reference data follows.
{"SMILES_NOTATION": "Cc1cc(C)c(S(=O)(=O)n2ncn(C(=O)N(c3ccc(F)cc3F)C(C)C)c2=O)c(C)c1", "ENDPOINT_UNIT": "%", "herbicidal effect, Amaranthus viridis": 50}
{"SMILES_NOTATION": "Cc1ccc(N(C(=O)n2cnn(S(=O)(=O)C(C)C)c2=O)C(C)C)c(F)c1", "ENDPOINT_UNIT": "%", "herbicidal effect, Amaranthus viridis": 90}

[Q] GET /values?readout=herbicidal effect, Amaranthus viridis&item= CC(C)N(C(=O)n1cnn(S(=O)(=O)c2ccccc2)c1=O)c1ccc(F)cc1F
[A] 40

[Q] GET /values?readout=herbicidal effect, Amaranthus viridis&item= CC(C)N(C(=O)n1cnn(S(C)(=O)=O)c1=O)c1ccc(F)cc1F
[A] 80

[Q] GET /values?readout=herbicidal effect, Amaranthus viridis&item= Cc1ccc(S(=O)(=O)n2ncn(C(=O)N(c3ccc(F)cc3Cl)C(C)C)c2=O)cc1
[A] 90

[Q] GET /values?readout=herbicidal effect, Amaranthus viridis&item= CC(C)N(C(=O)n1cnn(S(C)(=O)=O)c1=O)c1cccc(F)c1F
[A] 60

[Q] GET /values?readout=herbicidal effect, Amaranthus viridis&item= CC(C)N(C(=O)n1cnn(S(=O)(=O)C2CC2)c1=O)c1ccc(F)c(F)c1F
[A] 90

[Q] GET /values?readout=herbicidal effect, Amaranthus viridis&item= CCS(=O)(=O)n1ncn(C(=O)N(c2ccc(F)cc2F)C(C)C)c1=O
[A] 60
